Assign Ki to each entry below.
# assay-system: human V3 receptor (Homo sapiens, UniProt P47901)
# Sequence (P47901 1-424): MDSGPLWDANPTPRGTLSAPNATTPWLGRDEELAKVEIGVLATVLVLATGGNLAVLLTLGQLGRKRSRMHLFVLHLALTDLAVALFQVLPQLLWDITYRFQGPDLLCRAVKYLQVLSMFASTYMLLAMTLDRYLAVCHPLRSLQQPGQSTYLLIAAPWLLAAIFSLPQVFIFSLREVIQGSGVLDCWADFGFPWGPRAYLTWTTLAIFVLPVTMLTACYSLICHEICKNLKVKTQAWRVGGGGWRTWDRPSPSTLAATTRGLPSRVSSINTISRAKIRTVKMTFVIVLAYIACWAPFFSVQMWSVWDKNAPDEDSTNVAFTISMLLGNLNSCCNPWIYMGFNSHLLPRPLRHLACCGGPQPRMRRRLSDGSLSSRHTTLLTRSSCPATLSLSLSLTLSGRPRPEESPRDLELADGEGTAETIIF

For record COCCN1CCCN(c2ccc3nc(-c4cccc(OC)c4)n(CC(=O)NC(C)C)c(=O)c3c2)CC1 [Example 4d] the listed Ki is < 10 nM

For reference, reported Ki for CC(C)NC(=O)Cn1c(-c2ccc(F)c(Cl)c2)nc2ccc(N3CCCN(CC(C)(C)C)CC3)cc2c1=O [Example 5Ac] stands at < 10 nM

Noted for CC(C)NC(=O)Cn1c(-c2cccc(Cl)c2)nc2ccc(N3CCCNCC3)cc2c1=O [Example 1b] : its Ki reads < 10 nM

According to the records, this compound COc1cccc(-c2nc3ccc(N4CCCN(CC(F)(F)F)CC4)cc3c(=O)n2CC(=O)NC(C)C)c1 [Example 4c] displays Ki of 100 to 1000 nM

Measured Ki of CC(C)NC(=O)Cn1c(-c2cc(Cl)cc(OC(F)(F)F)c2)nc2ccc(N3CCCN(C(C)C)CC3)cc2c1=O [Example 6w] : < 10 nM

Lab book: Ki of COc1cccc(-c2nc3ccc(N4CCNCC4)cc3c(=O)n2CC(=O)NC(C)C)c1 [Example 2b] noted as 10 to 100 nM

Entry CC(C)(C)NC(=O)Cn1c(C2CCCC2)nc2ccc(N3CCCNCC3)cc2c1=O [Example 7a] — recorded Ki = 10 to 100 nM
